B1: library; a variant is named by its letters at N, in order (parent)
chain: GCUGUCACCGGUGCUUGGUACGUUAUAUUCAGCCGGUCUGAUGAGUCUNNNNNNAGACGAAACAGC

- Variants of: B1
- Assay Details: normalized RNA/DNA level with ligand (relative to sTRSVctl = 100) (log10 (% of sTRSVctl)); HEK293T overexpressing SLC46A1; ligand concentration (+) RNA-Seq: 6 mM; higher = less ribozyme self-cleavage, higher mRNA level
- Condition Set: with (6R,S)-folinic acid; ligand present: yes
Listing of recorded normalized RNA/DNA level with ligand (log10) by entry.
Number, no unit, nothing else.

mutant_code=GUCAAU reported_result=2.02
mutant_code=GGCUGU reported_result=2.07
mutant_code=CCCGGU reported_result=2.02
mutant_code=GUUAAU reported_result=2.04
mutant_code=UCAUGU reported_result=2.01

# variant CAGAUG ; its normalized RNA/DNA level with ligand (log10) = 2.03

# variant AAGCUA ; its normalized RNA/DNA level with ligand (log10) = 2

# variant AUCGAC ; its normalized RNA/DNA level with ligand (log10) = 2.01
